Efficacy for assorted compounds
# Assay Target: Cannabinoid receptor 2 (Homo sapiens)
# Test Name: Agonist activity at human CB2 receptor relative to HU210
# Format: functional
Endpoint: Efficacy (%)

input_smiles=FC1(F)CCN(c2ccc(-c3cccc(Cl)c3Cl)nn2)CC1 assay_target="Cannabinoid receptor 2 (Homo sapiens)" observed=83
input_smiles=FC(F)(F)Oc1ccccc1-c1ccc(N2CCOCC2)nn1 assay_target="Cannabinoid receptor 2 (Homo sapiens)" observed=55
input_smiles=Clc1cccc(-c2ccc(N3CCCCC3)nn2)c1Cl assay_target="Cannabinoid receptor 2 (Homo sapiens)" observed=86
input_smiles=C[C@@H]1C=C[C@H](C)N1c1ccc(-c2cccc(Cl)c2Cl)nn1 assay_target="Cannabinoid receptor 2 (Homo sapiens)" observed=93
input_smiles=O=S1(=O)CCN(c2ccc(-c3cccc(Cl)c3Cl)nn2)CC1 assay_target="Cannabinoid receptor 2 (Homo sapiens)" observed=89
input_smiles=c1ccc(COc2ccccc2-c2ccc(N3CCOCC3)nn2)cc1 assay_target="Cannabinoid receptor 2 (Homo sapiens)" observed=45

---

# Assay Target: Cannabinoid receptor 2 (Homo sapiens)
# Test Name: Agonist activity at human CB2 receptor relative to HU210
# Assay type: functional
Efficacy for assorted molecules
Endpoint: Efficacy (%)

input_smiles=Clc1cccc(-c2ccc(N3CCOCC3)nn2)c1Cl observed=76
input_smiles=FC(F)(F)c1cccc(-c2ccc(N3CCOCC3)nn2)c1 observed=15
input_smiles=Clc1ccc(Cl)c(-c2ccc(N3CCOCC3)nn2)c1 observed=39
input_smiles=Clc1cccc(-c2cnc(N3CCOCC3)cn2)c1Cl observed=89
input_smiles=C[C@@H]1CC[C@H](C)N1c1ccc(-c2cccc3cnccc23)nn1 observed=93
input_smiles=C[C@@H]1CC[C@H](C)N1c1ccc(-c2c[nH]c3ccccc23)nn1 observed=61
input_smiles=Clc1cccc(-c2ccc(NC3CCCCC3)nn2)c1Cl observed=69
input_smiles=C[C@@H]1CC[C@H](C)N1c1ccc(-c2cccc3cccnc23)nn1 observed=82
input_smiles=FC(F)(F)c1ccccc1-c1ccc(N2CCOCC2)nn1 observed=78
input_smiles=Cc1cccc(-c2ccc(N3CCOCC3)nn2)c1C observed=71
input_smiles=FC(F)(F)c1cccc(-c2ccc(N3CCOCC3)nn2)c1C(F)(F)F observed=75
input_smiles=Clc1ccccc1-c1ccc(N2CCOCC2)nn1 observed=77

---

# Test Name: Cmax in rat at 3 mg/kg, po
# Type: ADME, organism-based
# Design: dose 3 mg/kg, route oral
# Condition: in vivo
Endpoint: Cmax (nM)

input_smiles=C[C@@H]1CC[C@H](C)N1c1ccc(-c2cncc3ccccc23)nn1 observed=340

---

# Test Name: Drug level in rat brain at 1 mg/kg, po after 1 hr
# Type: ADME, organism-based
# Parameters: dose 1 mg/kg, route oral
# Condition: read-out: Drug uptake
Endpoint: concentration at 1 h (nM)

input_smiles=C[C@@H]1CC[C@H](C)N1c1ccc(-c2cncc3ccccc23)nn1 observed=500

---

pEC50 for assorted compounds
# Assay Target: Cannabinoid receptor 2 (Homo sapiens, UniProt P34972)
# Sequence (P34972 whole entry): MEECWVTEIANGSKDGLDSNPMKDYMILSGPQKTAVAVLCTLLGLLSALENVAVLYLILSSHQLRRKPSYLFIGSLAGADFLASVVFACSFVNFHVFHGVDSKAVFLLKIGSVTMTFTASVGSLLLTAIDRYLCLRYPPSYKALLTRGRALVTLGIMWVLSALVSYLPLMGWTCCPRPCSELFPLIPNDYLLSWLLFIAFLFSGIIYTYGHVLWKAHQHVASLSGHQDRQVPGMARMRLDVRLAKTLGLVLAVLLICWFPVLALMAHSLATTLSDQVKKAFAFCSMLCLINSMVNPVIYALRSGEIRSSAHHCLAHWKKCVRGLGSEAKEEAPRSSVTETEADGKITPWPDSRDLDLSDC
# Test Name: Agonist activity at human CB2 receptor
pEC50: −log10 of the molar value.
Endpoint: pEC50

input_smiles=C[C@@H]1CC[C@H](C)N1c1ccc(-c2cccc3ncccc23)nn1 qualifier_sign== observed=6.70
input_smiles=Clc1cccc(-c2cnc(N3CCOCC3)nn2)c1Cl qualifier_sign== observed=7.00
input_smiles=Clc1cccc(-c2ccc(N3CCOCC3)nn2)c1Cl qualifier_sign== observed=7.10
input_smiles=Clc1cccc(-c2cnc(N3CCOCC3)nc2)c1Cl qualifier_sign== observed=6.70
input_smiles=Clc1cccc(-c2ccc(NC3CCOCC3)nn2)c1Cl qualifier_sign=< observed=4.50
input_smiles=c1ccc(COc2cccc(-c3ccc(N4CCOCC4)nn3)c2)cc1 qualifier_sign=< observed=4.50
input_smiles=c1ccc(COc2ccccc2-c2ccc(N3CCOCC3)nn2)cc1 qualifier_sign== observed=6.20
input_smiles=Clc1cc(Cl)c(Cl)c(-c2ccc(N3CCOCC3)nn2)c1 qualifier_sign== observed=7.30
input_smiles=Clc1ccc(-c2ccc(N3CCOCC3)nn2)c(Cl)c1 qualifier_sign=< observed=4.50
input_smiles=FC1(F)CCN(c2ccc(-c3cccc(Cl)c3Cl)nn2)CC1 qualifier_sign== observed=7.80
input_smiles=Clc1ccc(Cl)c(-c2ccc(N3CCOCC3)nn2)c1 qualifier_sign== observed=6.40
input_smiles=C[C@@H]1CC[C@H](C)N1c1ccc(-c2cccc(Cl)c2Cl)nn1 qualifier_sign== observed=8.90
input_smiles=FC(F)(F)c1ccccc1-c1ccc(N2CCOCC2)nn1 qualifier_sign== observed=5.90
input_smiles=C[C@@H]1CC[C@H](C)N1c1ccc(-c2cncc3ccccc23)nn1 qualifier_sign== observed=8.00
input_smiles=Clc1cccc(-c2ccc(N3CCCC3)nn2)c1Cl qualifier_sign== observed=7.60
input_smiles=COc1ccc(-c2ccc(N3CCOCC3)nn2)c(Cl)c1 qualifier_sign=< observed=4.50
input_smiles=COc1ccccc1-c1ccc(N2CCOCC2)nn1 qualifier_sign== observed=4.90
input_smiles=Cc1cccc(-c2ccc(N3CCOCC3)nn2)c1C qualifier_sign== observed=5.70
input_smiles=FC(F)(F)Oc1ccccc1-c1ccc(N2CCOCC2)nn1 qualifier_sign== observed=5.90
input_smiles=C[C@@H]1CC[C@H](C)N1c1ccc(-c2cccc3cnccc23)nn1 qualifier_sign== observed=7.40
input_smiles=C[C@@H]1CC[C@H](C)N1c1ccc(-c2cc3ccccc3o2)nn1 qualifier_sign== observed=6.80
input_smiles=Clc1cccc(-c2ncc(N3CCOCC3)cn2)c1Cl qualifier_sign== observed=7.30
input_smiles=FC(F)(F)c1cccc(-c2ccc(N3CCOCC3)nn2)c1C(F)(F)F qualifier_sign== observed=6.80
input_smiles=O=S1(=O)CCN(c2ccc(-c3cccc(Cl)c3Cl)nn2)CC1 qualifier_sign== observed=6.20

The measured values listed here are drawn from ChEMBL document CHEMBL1153230.
